# system under test: TDP-43 (Homo sapiens, UniProt Q13148 1-414)
# Sequence (Q13148 whole entry): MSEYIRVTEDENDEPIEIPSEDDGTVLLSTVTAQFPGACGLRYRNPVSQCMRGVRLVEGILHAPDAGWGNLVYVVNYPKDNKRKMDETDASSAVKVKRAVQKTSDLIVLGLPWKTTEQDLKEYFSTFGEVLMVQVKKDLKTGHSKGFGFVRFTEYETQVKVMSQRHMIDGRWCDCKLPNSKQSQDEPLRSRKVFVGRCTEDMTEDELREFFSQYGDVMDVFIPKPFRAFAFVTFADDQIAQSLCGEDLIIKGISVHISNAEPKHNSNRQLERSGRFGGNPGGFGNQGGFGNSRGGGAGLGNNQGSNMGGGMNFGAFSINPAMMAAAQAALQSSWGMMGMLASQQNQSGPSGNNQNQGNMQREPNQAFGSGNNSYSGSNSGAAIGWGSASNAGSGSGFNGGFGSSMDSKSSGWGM
# experimental details: RNA Bind-n-Seq with designed 260-mer pool; 25 mM Tris-HCl, 150 mM KCl, 3 mM MgCl2, BSA (printed 500 mg/mL), 20 units/mL SUPERase IN; pH not stated; 500 nM RNA pool, 1 h, 4 C; TDP-43 5, 50, 500 nM; high values mean tight binding
# condition description: protein: recombinant; tags: SBP (GST cleaved off with PreScission; pGEX-GST-SBP)
In all, about 9,900 sequences were measured (“r (bound/input frequency ratio)”: median about 0.7, highest 2% from about 6.5 on). What follows is part of a selection rich in the highest values, with near analogues and random picks from the rest.
parameter measured: binding signal

ENSMUSG00000061578.971|Ksr2 (ssRNA) RNA: GGGAGUUCUACAGUCCGACGAUCGCUUCGAUAUCCGCAUGCUAGGAAGGUAGUUUUCCCCCAGAAAGUCCCUUCUAAUAAACAUUGAUGACUUUAGAAUCCAUGACUCAGAAUUUUCCAGAGACCCAAUCCCUCGGGGUCCACUUAGUGAUGGGACCAUACAAGAGUUUAUUUCCAAUUAGAGAAUUGGGUCAACUGGGAAAGGCUUCUUUCCUGGUAACCCUGCUACUGAUACUAUGUUGAAACAGGAAUCGACUCUAACUGCUUUUUGGCCUCUUCCCUGCACGGGAGUCUCAAAAUCAAGCUCUUGCGGUCGCACUAGUGUGGAAUUCUCGGGUGUCAAGG; 0.299 R (bound/input frequency ratio)
